Reference for the values: paper PMC8653295

pIC50: −log10 of the molar value.
So I've got pIC50 readings for SARS‐CoV PL^pro (Severe acute respiratory syndrome coronavirus, UniProt P0C6X7), take a look.
QUANTITY KIND: pIC50

> print(dat)
                                   compound                              assay.system  quantity.kind  reading
1  O=C(O)CC([S-])C(=O)O.[Au+] (stereo not shown) [Au‐2, aurothiomalate, reference compound]  SARS‐CoV PL^pro (Severe acute respiratory syndrome coronavirus, UniProt P0C6X7)          pIC50     6.16
2  CCn1[c]([Au-][Cl])[n+](CC)c2cc(C(=O)OC)ccc21  SARS‐CoV PL^pro (Severe acute respiratory syndrome coronavirus, UniProt P0C6X7)          pIC50     6.48
3  CO[C@H]1O[C@H](CNC(=O)C2CCN(C(=S)[S-])CC2)[C@@H](O)[C@H](O)[C@H]1O.[Au+3].[Br-].[Br-]  SARS‐CoV PL^pro (Severe acute respiratory syndrome coronavirus, UniProt P0C6X7)          pIC50     5.98
4  CCP(CC)CC.[Au+].[Cl-] [Au‐3, (triethylphosphine)AuCl, reference compound]  SARS‐CoV PL^pro (Severe acute respiratory syndrome coronavirus, UniProt P0C6X7)          pIC50     5.92
